Molecular target: UniProt:P43405
reported metric: pIC50
// pIC50: -log10(molar conc.)

CCN(CC)c1ccc(-c2cc3nccnc3c(O[C@@H]3CCOC3)n2)cc1	7.36
c1cnc2c(OCCc3cn[nH]c3)nc(-c3ccc(N4CCOCC4)cc3)cc2n1	6.26
CNc1ccc(-c2cc3nccnc3c(OC[C@@H]3CN(S(C)(=O)=O)CCO3)n2)cc1F	7.38
CN(C)c1ccc(-c2cc3nccnc3c(OC[C@@H]3CN(S(=O)(=O)CCN4CC[C@H](O)C4)CCO3)n2)cc1	7.49
CC(C)c1ccc(-c2cc3nccnc3c(OC[C@@H]3CN(S(N)(=O)=O)CCO3)n2)cc1	6.96
c1cnc2c(O[C@@H]3CCOC3)nc(-c3ccc(C4CCOCC4)cc3)cc2n1	7.35

Please give the measured pIC50 for this compound: "CN(C)c1ccc(-c2cc3nccnc3c(OC[C@@H]3CN(C(=O)C(C)(F)F)CCO3)n2)cc1"
7.30

Which pIC50 value is on record for "CN(C)c1ccc(-c2cc3nccnc3c(OC[C@@H]3CN(S(C)(=O)=O)CCO3)n2)cc1Cl" ?
7.72

---

Target: UniProt:P36888
Sequence (P36888 27-993, species assumed): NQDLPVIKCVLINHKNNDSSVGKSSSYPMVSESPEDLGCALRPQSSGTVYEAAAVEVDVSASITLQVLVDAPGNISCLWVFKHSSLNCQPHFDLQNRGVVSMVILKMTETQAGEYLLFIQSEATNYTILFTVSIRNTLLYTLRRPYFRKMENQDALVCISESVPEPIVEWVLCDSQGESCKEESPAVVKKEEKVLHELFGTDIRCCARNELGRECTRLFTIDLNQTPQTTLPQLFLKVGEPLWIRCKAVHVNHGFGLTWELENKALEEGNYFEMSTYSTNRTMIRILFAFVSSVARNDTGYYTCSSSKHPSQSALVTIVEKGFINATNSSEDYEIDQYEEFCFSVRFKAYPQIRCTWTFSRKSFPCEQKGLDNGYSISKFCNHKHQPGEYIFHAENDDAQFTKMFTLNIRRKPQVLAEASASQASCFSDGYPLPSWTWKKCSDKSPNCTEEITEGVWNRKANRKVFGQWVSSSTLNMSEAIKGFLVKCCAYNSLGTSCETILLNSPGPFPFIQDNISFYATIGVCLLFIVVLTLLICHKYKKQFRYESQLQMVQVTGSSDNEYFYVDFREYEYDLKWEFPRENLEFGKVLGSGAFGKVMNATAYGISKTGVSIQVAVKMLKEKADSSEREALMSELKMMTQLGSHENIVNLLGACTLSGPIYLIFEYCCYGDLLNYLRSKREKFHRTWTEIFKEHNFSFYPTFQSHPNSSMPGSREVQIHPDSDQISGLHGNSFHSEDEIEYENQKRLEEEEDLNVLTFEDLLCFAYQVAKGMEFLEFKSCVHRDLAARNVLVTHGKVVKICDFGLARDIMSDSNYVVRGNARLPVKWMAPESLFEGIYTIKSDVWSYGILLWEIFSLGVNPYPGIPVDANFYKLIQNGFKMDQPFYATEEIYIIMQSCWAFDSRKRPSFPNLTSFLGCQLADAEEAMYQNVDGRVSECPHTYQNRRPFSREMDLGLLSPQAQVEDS
reported metric: IC50 (nM)
Field: numeric (nM). Do not append units.

Item: "CC(C)(O)c1ccc(-c2cc3nccnc3c(OC[C@@H]3CN(S(C)(=O)=O)CCO3)n2)cc1" Test system: UniProt:P36888 Read-out: IC50 Value: ?
880

---

Below are pIC50 values recorded for Syk kinase (Homo sapiens, UniProt P43405).
On this scale, pIC50 is minus log10 of a concentration expressed in M (mol/L).

Cn1cc(-c2cc3nccnc3c(OC[C@@H]3CN(S(C)(=O)=O)CCO3)n2)cn1 [Compound 46]	6.72

Write down the reported pIC50 of CC(=O)N1CCO[C@H](COc2nc(-c3ccc(N(C)C)c(F)c3)cc3nccnc23)C1 [Compound 139] , test system: Syk kinase (Homo sapiens, UniProt P43405).
7.02

Request: pIC50, test system Syk kinase (Homo sapiens, UniProt P43405), entry c1cnc2c(O[C@@H]3CCOC3)nc(-c3ccc(C4CCNCC4)cc3)cc2n1 [Compound 190]
7.30

Request - read-out pIC50 | tested on Syk kinase (Homo sapiens, UniProt P43405) | compound CS(=O)(=O)N1CCO[C@H](COc2nc(-c3ccc(OC(F)F)cc3)cc3nccnc23)C1 [Compound 34]
6.64

---

System: Syk kinase (Homo sapiens) | Read-out: IC50
Please give a number only; it is taken to be in nM.

Reference set, count: 4
CC(C)S(=O)(=O)N1CCO[C@H](COc2nc(-c3ccc(N(C)C)cc3)cc3nccnc23)C1	96
CN1CCN(c2ccc(-c3cc4nccnc4c(O[C@@H]4CCOC4)n3)cc2)CC1	31
CN(C)c1ccc(-c2cc3nccnc3c(OC[C@@H]3CN(C(=O)CC4CC4)CCO3)n2)cc1	99
CC(=O)N1CCO[C@H](COc2nc(-c3ccc(C(O)C(C)C)cc3)cc3nccnc23)C1 (some centres unmarked)	403

Now look at this entry.
IC50 for "CN1CCCc2cc(-c3cc4nccnc4c(OC[C@@H]4CN(C(N)=O)CCO4)n3)ccc21" ?
17

---

Target: Syk kinase (Homo sapiens)
Below, each of the compounds is paired with its reported pIC50 value.
In simple prose, pIC50 is minus the logarithm base ten of a concentration in moles per litre.

The examples below pair each entry with its known result.
NC(=O)N1CCO[C@H](COc2nc(-c3ccc(N4CCOCC4)cc3)cc3nccnc23)C1 [Compound 63]	7.43
CNC(=O)N1CCO[C@H](COc2nc(-c3ccc(C(C)C)cc3)cc3nccnc23)C1 [Compound 176]	7.23
C[C@H](O)C(=O)N1CCO[C@H](COc2nc(-c3ccc(N(C)C)cc3)cc3nccnc23)C1 [Compound 197]	7.07

Moving on to another compound below.
Lab note: need pIC50 for CS(=O)(=O)N1CCO[C@H](COc2nc(-c3ccc(C#N)cc3)cc3nccnc23)C1 [Compound 45] on Syk kinase (Homo sapiens), anyone have it?
6.07

---

Target: Syk kinase (Homo sapiens, UniProt P43405)
pIC50: −log10 of the molar value.
Outcome label depends on pIC50 relative to 7: at/above gives Condition met, below gives Condition not met.

CN1CCc2cc(-c3cc4nccnc4c(OC[C@@H]4CN(C(N)=O)CCO4)n3)ccc21	Condition met
CS(=O)(=O)N1CCO[C@H](COc2nc(-c3ccc4c(c3)OCO4)cc3nccnc23)C1	Condition not met
Cc1cc(-c2cc3nccnc3c(OC[C@@H]3CN(S(N)(=O)=O)CCO3)n2)ccc1N(C)C	Condition met
CNS(=O)(=O)N1CCO[C@H](COc2nc(-c3ccc(N(C)C)c(C)c3)cc3nccnc23)C1	Condition met
CN1CCN(c2ccc(-c3cc4nccnc4c(OC[C@@H]4CN(C(=O)C(F)F)CCO4)n3)cc2)CC1	Condition met

Turning to the following molecule.
Determine whether this molecule has pIC50 no lower than 7: "OCCN1CCC(c2ccc(-c3cc4nccnc4c(O[C@@H]4CCOC4)n3)cc2)CC1"
Condition met

---

Test system: RBL-2H3 cells
Test: IgE-induced Beta-hexosaminidase secretion in RBL-2H3 cells
Type: cell-based
Settings: IgE-induced Beta-hexosaminidase secretion, DNP-BSA stimulation
reported metric: pIC50
A value of pIC50 is the negative decimal logarithm of a concentration given in moles per litre.

CN(C)c1ccc(-c2cc3nccnc3c(OC[C@@H]3CN(S(C)(=O)=O)CCO3)n2)cc1	7.40
CC(C)(CO)c1ccc(-c2cc3nccnc3c(OC[C@@H]3CN(S(C)(=O)=O)CCO3)n2)cc1	7.32
CC(=O)N1CCO[C@H](COc2nc(-c3ccc(N(C)C)c(F)c3)cc3nccnc23)C1	6.71
CC(C)c1ccc(-c2cc3nccnc3c(OC[C@@H]3CN(S(C)(=O)=O)CCO3)n2)cc1	7.16
CN(C)c1ccc(-c2cc3nccnc3c(OC[C@@H]3CN(C(=O)[C@H]4CCOC4)CCO3)n2)cc1	7.15
CN1CCCc2cc(-c3cc4nccnc4c(OC[C@@H]4CN(S(C)(=O)=O)CCO4)n3)ccc21	7.85
N#CC1(c2ccc(-c3cc4nccnc4c(OC[C@@H]4CN(S(N)(=O)=O)CCO4)n3)cc2)CCC1	6.88

Query: pIC50; subject: "N#CC1(c2ccc(-c3cc4nccnc4c(OC[C@@H]4CN(C(N)=O)CCO4)n3)cc2)CCC1"
6.33

---

Each entry below carries its measured pIC50, system: Syk kinase (Homo sapiens, UniProt P43405).
Here pIC50 is given on a logarithmic scale as minus log10 of the concentration in mol/L.

CCC(O)(CC)c1ccc(-c2cc3nccnc3c(OC[C@@H]3CN(C(N)=O)CCO3)n2)cc1	7.19
CN(C)c1ccc(-c2cc3nccnc3c(OC[C@@H]3CN(S(=O)(=O)c4cccnc4)CCO3)n2)cc1	7.12
CS(=O)(=O)N1CCO[C@H](COc2nc(-c3ccc(C4(O)CCC4)cc3)cc3nccnc23)C1	7.46

# query: pIC50 of entry "CS(=O)(=O)N1CCO[C@H](COc2nc(-c3ccc(N4CCCC4)cc3)cc3nccnc23)C1"
7.40

Requested field: pIC50. Item: "CN(C)c1ccc(-c2cc3nccnc3c(OC[C@@H]3CN(S(C)(=O)=O)CCO3)n2)cn1"
7.59

Query (compound): "CCN(CC)c1ccc(-c2cc3nccnc3c(OC[C@@H]3CN(C(C)=O)CCO3)n2)cc1" ; field requested: pIC50
7.55

Any idea what its pIC50 is? The compound is "CS(=O)(=O)N1CCO[C@H](COc2nc(-c3ccc(N4CCC(F)(F)CC4)cc3)cc3nccnc23)C1"
7.39

---

Dear all, this message contains pIC50 results, target or system Syk kinase (Homo sapiens, UniProt P43405).
Convention used: pIC50 is expressed as -log10 of the molar concentration.

Below: 3 molecules and their reported pIC50.
CNC(=O)N1CCO[C@H](COc2nc(-c3ccc(N(C)C)c(F)c3)cc3nccnc23)C1 [Compound 184]	7.08
CN(C)c1ccc(-c2cc3nccnc3c(OC[C@@H]3CN(C(=O)CCc4cccnc4)CCO3)n2)cc1 [Compound 79]	6.64
C[C@@H]1CN(c2ccc(-c3cc4nccnc4c(O[C@@H]4CCOC4)n3)cc2)C[C@H](C)O1 [Compound 229]	7.31

Query for Syk kinase (Homo sapiens, UniProt P43405): what pIC50 does the record show for CC(=O)N1CC(C)(c2ccc(-c3cc4nccnc4c(OC[C@@H]4CN(S(C)(=O)=O)CCO4)n3)cc2)C1 [Compound 321] ?
7.85

---

The following compounds are shown together with reported IC50 values.
Target: VEGFR-2 (KDR) (Homo sapiens, UniProt P35968)
Sequence (P35968 20-1356): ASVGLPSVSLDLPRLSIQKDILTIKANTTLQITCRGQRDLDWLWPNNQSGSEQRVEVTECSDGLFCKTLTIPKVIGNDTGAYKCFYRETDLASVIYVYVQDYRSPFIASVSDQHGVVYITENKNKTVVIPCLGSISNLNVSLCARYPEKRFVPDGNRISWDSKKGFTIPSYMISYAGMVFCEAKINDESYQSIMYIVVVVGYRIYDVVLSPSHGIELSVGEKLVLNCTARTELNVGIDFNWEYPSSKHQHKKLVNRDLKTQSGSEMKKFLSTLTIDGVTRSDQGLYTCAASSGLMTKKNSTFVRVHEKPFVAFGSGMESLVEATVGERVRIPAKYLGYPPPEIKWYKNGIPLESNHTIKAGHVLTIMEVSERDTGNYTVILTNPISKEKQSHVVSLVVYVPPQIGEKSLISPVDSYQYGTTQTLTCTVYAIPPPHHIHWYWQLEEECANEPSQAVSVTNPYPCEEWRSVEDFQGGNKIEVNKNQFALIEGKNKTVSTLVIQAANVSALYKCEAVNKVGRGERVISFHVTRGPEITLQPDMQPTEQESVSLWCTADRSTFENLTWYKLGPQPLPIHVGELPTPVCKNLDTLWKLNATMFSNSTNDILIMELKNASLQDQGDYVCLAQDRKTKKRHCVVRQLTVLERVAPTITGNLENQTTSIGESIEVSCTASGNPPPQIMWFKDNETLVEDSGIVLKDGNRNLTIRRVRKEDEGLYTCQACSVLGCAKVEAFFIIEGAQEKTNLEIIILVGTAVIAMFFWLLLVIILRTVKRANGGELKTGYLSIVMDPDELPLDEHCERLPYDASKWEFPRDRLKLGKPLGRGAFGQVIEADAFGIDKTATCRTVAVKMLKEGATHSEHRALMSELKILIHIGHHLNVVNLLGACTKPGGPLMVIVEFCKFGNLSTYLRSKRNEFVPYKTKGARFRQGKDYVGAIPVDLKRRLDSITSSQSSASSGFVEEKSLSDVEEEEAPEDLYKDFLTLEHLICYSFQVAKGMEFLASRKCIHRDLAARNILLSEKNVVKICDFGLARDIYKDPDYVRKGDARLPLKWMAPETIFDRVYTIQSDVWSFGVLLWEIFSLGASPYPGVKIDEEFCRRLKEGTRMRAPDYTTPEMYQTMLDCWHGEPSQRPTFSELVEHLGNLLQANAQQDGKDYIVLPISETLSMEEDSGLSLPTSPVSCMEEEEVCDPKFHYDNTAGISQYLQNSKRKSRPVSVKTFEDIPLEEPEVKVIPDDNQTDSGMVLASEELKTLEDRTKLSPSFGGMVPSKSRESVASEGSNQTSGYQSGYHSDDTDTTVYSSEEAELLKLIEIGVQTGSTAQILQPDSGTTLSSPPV
Assay: Transcreener Kinase Assay of VEGFR-2 (KDR)
Conditions: recombinant human KDR, Transcreener FP
Expressed in nM, but write only the number.

CC(C)(O)c1ccc(-c2cc3nccnc3c(OC[C@@H]3CN(S(C)(=O)=O)CCO3)n2)cc1 [Compound 219]	748

Kindly consider the entry below.
I would be grateful if you could share the reported IC50 for CC(=O)N1CCO[C@H](COc2nc(-c3ccc4c(c3)CCOC4(C)C)cc3nccnc23)C1 [Compound 300] .
1130

Data provenance: patent US20170152258A9
